Target: T1, AAV8 (adeno-associated virus 8)
T1 construct: also called adeno-associated virus serotype 8
Assay: SPR, AAV amine-coupled to CM5 chip;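 further: nanobodies flowed as analyte at seven concentrations spanning 1–100 nM over immobilized AAV (500–800 RU), kinetic constants derived by fitting the binding curves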
Exercise: state measured Kd for each of the binders provided.
Numeric answer only, unit nM assumed.

Ask: Would you mind telling me what Kd value was observed for A4-081 (VHH) VHH: VQLQESGGGLVQPGGSLRLSCAASGSRFSLNTMGWYRQAPGKQRELVATVTRGGSTNYADSVKGRFTISRDNAKNTVYLQMNSLRPEDTAVYYCHVDELRESGWTTSNLWGQGTQVTVSS ?
Reply: 6.05

Ask: Would you mind telling me what Kd value was observed for A4-084 (VHH) VHH: VQLQESGGGLVQPGGSLKLSCAASGSRFSLNTMGWYRQAPRKQREFVAAVTRGGNTNYGDFVKGRFTISRDNAKNTVYLQMNSLRPEDTAVYYCHVDELRESSWTTSNLWGQGTQVTVSS ?
Reply: 12.8

Ask: Would you mind telling me what Kd value was observed for A4-056 (VHH) VHH: VQLQESGGGLVQPGGSLRLSCAASGSAFSINTMGWYRQAPGKQREKVAAVTRGGSTNYADSVKGRFTISRDNAKNTVYLQMNSLRPEDTAVYYCHVDEVRQSSWTTSNLWGQGTQVTVSS ?
Reply: 265
